List of MIC tested on Staphylococcus aureus IFO 3060.
Give your result in µg/mL as a bare value.

Use these answered entries as a reference point.
compound | units_text | MIC
CCOC(=O)CSc1nnc(C23CC4CC(CC(C4)C2)C3)n1-c1ccccc1 | µg/mL | 4
CNC(C)C1CCC(N)C(OC2C(N)CC(N)C(OC3OCC(C)(O)C(NC)C3O)C2O)O1 (stereo not shown) [Gentamicin, gentamicin, reference compound] | µg/mL | 2
O=C(O)CSc1nnc(C23CC4CC(CC(C4)C2)C3)n1-c1ccccc1 | µg/mL | 8

Would you kindly look at the next entry?
Exam item: // MIC lookup, key: CC1(C)S[C@@H]2[C@H](NC(=O)[C@H](N)c3ccccc3)C(=O)N2[C@H]1C(=O)O [Ampicillin, ampicillin, reference compound]
Marked response: 2

* * *

# maps each entry to its LD50 at 24 h
- experiment_notes: Oral acute toxicity
- Format: in vivo, mice
- assay_context: both, albino, mouse, in vivo, po
Give your result in mg/kg as a bare value.

smi | LD50 at 24 h, mg/kg
CCOC(=O)CSc1nnc(C23CC4CC(CC(C4)C2)C3)n1-c1ccccc1 | 924

Would you kindly look at the next entry?
Exam item: // LD50 at 24 h lookup, key: O=C(O)CSc1nnc(C23CC4CC(CC(C4)C2)C3)n1-c1ccccc1
Marked response: 554
